System: RXF 393 renal
METHOD NOTES: NCI tumour cell line growth inhibition, 48 h
Would you mind labelling by TGI? At or over 3 µM is Satisfied, under is Not satisfied.

INPUT: Hi team, for C(=Nc1nc(SCc2ccccc2)nc2[nH]ncc12)c1cccs1 , is the recorded TGI at or above 3 µM?
OUTPUT: Satisfied

INPUT: Hi team, for CCCC(=O)CC(C)C(=O)C(=O)NC12CC3CC(CC(C3)C1)C2 (configuration not stated) , is the recorded TGI at or above 3 µM?
OUTPUT: Satisfied

INPUT: Hi team, for NNc1nnc(CCCCCCCCc2nnc(NN)n2N)n1N , is the recorded TGI at or above 3 µM?
OUTPUT: Satisfied

INPUT: Hi team, for O=C(O)CCCc1ccc2c(c1)CC1(C2)Cc2cc3c(cc2C1)CCCC3 , is the recorded TGI at or above 3 µM?
OUTPUT: Satisfied

INPUT: Hi team, for Cc1cc(Br)c(NC(=O)c2c(-c3c(Cl)cccc3Cl)noc2C)c(Br)c1 , is the recorded TGI at or above 3 µM?
OUTPUT: Satisfied

INPUT: Hi team, for CCN(CC)CCNc1ccc([N+](=O)[O-])c2nc3ccc(OC)cc3c(NCCN(CC)CC)c12 , is the recorded TGI at or above 3 µM?
OUTPUT: Not satisfied

INPUT: Hi team, for O=C1CC(c2cccc(Cl)c2)Nc2ccc(N3CCCC3)cc21 (configuration not stated) , is the recorded TGI at or above 3 µM?
OUTPUT: Not satisfied

INPUT: Hi team, for CN1CCN(c2c(F)cc(NC3=C(Cl)C(=O)c4ncccc4C3=O)cc2F)CC1 , is the recorded TGI at or above 3 µM?
OUTPUT: Satisfied

INPUT: Hi team, for S=C1Cc2c(-c3ccccc3)cc(-c3cccc(Cl)c3)nc2-c2ccccc2N1 , is the recorded TGI at or above 3 µM?
OUTPUT: Satisfied

INPUT: Hi team, for COC(=O)/C=C(\C(=O)OC)c1cc(C)c2cc(C(C)C)ccc(C)c1-2 , is the recorded TGI at or above 3 µM?
OUTPUT: Satisfied

INPUT: Hi team, for CC(=O)Oc1ccc(C2=Cc3ccc(OC(C)=O)cc3OC2C)cc1 (configuration not stated) , is the recorded TGI at or above 3 µM?
OUTPUT: Satisfied

INPUT: Hi team, for Cc1ccc(S[C@@](C=O)(NC(=O)OCc2ccccc2)C(F)(F)F)cc1 , is the recorded TGI at or above 3 µM?
OUTPUT: Satisfied

----------
System: UACC-62 melanoma
METHOD NOTES: NCI tumour cell line growth inhibition, 48 h
Where a SMILES comes first, the peptide text is derived from it. Bridges are numbered along the chain shown (N, C = ends). [ ]: non-standard residue; d: D form. aThr = C[C@H](O)[C@H](N)C(=O)O
READOUT NAME: TGI

The measured TGI associated with COc1ccccc1CNCCN1C(=O)c2ccc3c4c(ccc(c24)C1=O)C(=O)N(CCNCc1ccccc1OC)C3=O reads 3.39 µM

The measured TGI associated with O=C1NC(=O)C2C(=O)NC(=O)C1C2Cc1ccco1 (configuration not stated) reads > 100 µM

The measured TGI associated with O=C1c2ccccc2N2OC3(N4CCOCC4)CCCC3C12c1ccccc1 (configuration not stated) reads > 100 µM

The measured TGI associated with Cc1cc(N(CCC#N)CCC#N)ccc1/C(N=Nc1ccccc1)=N\NC(=O)c1cc(Cl)ccc1O reads 27.7 µM

The measured TGI associated with CCOC(=O)c1c(NC(=O)c2ccccc2)c(C#N)c2n1CCCCC2 reads > 100 µM

The measured TGI associated with N#CC1CC(c2ccccc2)Nc2cc(Cl)ccc2N1 (configuration not stated) reads > 100 µM

The measured TGI associated with COC(=O)C(C(=O)C(=O)Nc1c(Cl)cc([N+](=O)[O-])cc1Cl)c1csc(-n2nc(C3=CCCCC3)cc2-c2ccccc2)n1 (configuration not stated) reads > 100 µM

The measured TGI associated with CCOC(=O)c1ccc(N=Nc2ccc(N(CCC#N)CCC#N)cc2C)cc1 reads > 100 µM

The measured TGI associated with O=C(c1ccc(Cl)cc1)N(C(=O)N1CCCCC1)c1ccccc1 reads > 100 µM

The measured TGI associated with COc1ccc(/C(Nc2ccccc2)=C(\CCl)c2ccccc2)cc1OC reads > 100 µM

The measured TGI associated with COC1(OC)CCc2c(sc3ncnc(Nc4cccc(Br)c4)c23)C1 reads > 100 µM

The measured TGI associated with COCCN(CCOC)c1nc(-c2ccccc2)nc2ccccc12 reads 34.9 µM

The measured TGI associated with CC(C)C[C@@H]1NC(=O)[C@@H]2CCCN2C(=O)[C@@H]2CCCN2C(=O)[C@H](CC(C)C)NC(=O)[C@H](CO)NC(=O)[C@H](CCCCN)NC(=O)[C@H]([C@H](C)O)NC(=O)[C@@H]2CSSC[C@@H](NC1=O)C(=O)N[C@@H](Cc1ccccc1)C(=O)N1CCC[C@H]1C(=O)N[C@@H](CC(=O)O)C(=O)NCC(=O)N[C@@H](CCCN=C(N)N)C(=O)N2 (cyclo(C[aThr]KSLPPL[dC]FPDGR); disulfide 1-9) reads > 50 µM

The measured TGI associated with CCCCCCCCCCCCCCNC(=O)Nc1ccc(Cl)c(Cl)c1 reads > 100 µM

The measured TGI associated with CC(=O)OCC(=O)[C@@]1(O)CC[C@H]2[C@@H]3C[C@H](C)C4=CC(=O)C=C[C@]4(C)[C@@]3(F)[C@@H](O)C[C@@]21C reads > 100 µM

The measured TGI associated with COC(=O)c1c(C)cccc1/C=C1\Cc2ccc(C)c(C)c2C1=O reads > 100 µM

The measured TGI associated with COc1cc(C(=O)/C=C/c2cccc(Nc3ccnc4cc(Cl)ccc34)c2)cc(OC)c1OC reads 2.36 µM
